Each recorded value in this set is attributed to paper PMC9865144.

biological target: T1, FAK1 (Homo sapiens (Human), UniProt Q05397); experiment: ITC, Trx fusions
T1 chain: EAPPKPSRPGYPSPR
Experimental Readout: Kd (µM)

> print(dat)
                                     binder  experimental.readout  observed.measurement
1  GRAF2_SH3 (protein) IRSRKARAVYPCEAEHSSELSFEIGAIFEDVQTSREPGWLEGTLNGKRGLIPQNYVKLL                    Kd                  6.06

1 = ASAP1_SH3 (protein) VRRVKTIYDCQADNDDELTFIEGEVIIVTGEEDQEWWIGHIEGQPERKGVFPVSFVHILSD
2 = SKAP1_SH3 (protein) DYASYYQGLWDCHGDQPDELSFQRGDLIRILSKEYNMYGWWVGELNSLVGIVPKEYLTTAFE
Request: Which record would sort first by descending Kd, 1 or 2 ? Answer format: the label of the selected item.
Result: 2
